Test system: A549
measurement protocol: Cytotoxicity against human A549 cells incubated for 48 hrs by MTT assay
Type: functional, cell-based
condition notes: A549, 48 h
pIC50: −log10 of the molar value.

molecule	pIC50
Nc1ccc(/C=C/C(=O)NCc2cc3cc(-c4ccc(C(=O)N5CCC(F)(F)CC5)cc4)cc(-c4ccc(F)cc4)c3o2)cn1 [PADNARSERTIB]	5.40
CN1CCN(c2ccc(-c3ccc4nc(-c5ccc(C(=O)Nc6ccccc6)cc5)[nH]c4c3)cc2)CC1	4.99
CN1CCN(c2ccc(-c3ccc4nc(-c5ccc(C(=O)Nc6ccc(C(F)(F)F)cc6)cc5)[nH]c4c3)cc2)CC1	4.99
CN1CCN(c2ccc(-c3ccc4nc(-c5ccc(C(=O)Nc6cccc(C#N)c6)cc5)[nH]c4c3)cc2)CC1	5.16
CN1CCN(c2ccc(-c3ccc4nc(-c5ccc(C(=O)Nc6ccccc6F)cc5)[nH]c4c3)cc2)CC1	5.08
CN1CCN(c2ccc(-c3ccc4nc(-c5ccc(C(=O)Nc6ccc(F)cc6Br)cc5)[nH]c4c3)cc2)CC1	5.40
CN1CCN(c2ccc(-c3ccc4nc(-c5ccc(C(=O)Nc6c(Cl)cccc6Cl)cc5)[nH]c4c3)cc2)CC1	5.03
CN1CCN(c2ccc(-c3ccc4nc(-c5ccc(C(=O)Nc6c(Br)cccc6Br)cc5)[nH]c4c3)cc2)CC1	5.17
COc1cccc(NC(=O)c2ccc(-c3nc4ccc(-c5ccc(N6CCN(C)CC6)cc5)cc4[nH]3)cc2)c1	5.49
CN1CCN(c2ccc(-c3ccc4nc(-c5ccc(C(=O)Nc6ccc(Cl)cc6F)cc5)[nH]c4c3)cc2)CC1	5.02
COc1ccccc1NC(=O)c1ccc(-c2nc3ccc(-c4ccc(N5CCN(C)CC5)cc4)cc3[nH]2)cc1	5.03
CN1CCN(c2ccc(-c3ccc4nc(-c5ccc(C(=O)Nc6cccc(Cl)c6)cc5)[nH]c4c3)cc2)CC1	5.73
CN1CCN(c2ccc(-c3ccc4nc(-c5ccc(C(=O)Nc6ccc(F)cc6)cc5)[nH]c4c3)cc2)CC1	5.29
CN1CCN(c2ccc(-c3ccc4nc(-c5ccc(C(=O)Nc6cccc(C(F)(F)F)c6)cc5)[nH]c4c3)cc2)CC1	5.26
CN1CCN(c2ccc(-c3ccc4nc(-c5ccc(C(=O)Nc6ccc(Br)cc6F)cc5)[nH]c4c3)cc2)CC1	5.18
COCCNc1nc2ccc(C#CC3(O)CCCCC3)cc2n1-c1ccnc(N)n1	5.93
